# assay.text: in vivo
# Design: species or system Sprague-Dawley (SD) rats
# study.conditions: Sprague-Dawley, plasma; 12 h after oral CNP, rat
Reported concentration at 12 h values are given for each entry in this list.
outcome.measure: concentration at 12 h (ng/mL)

- molecule: "CC(C)=CCC[C@](C)(O[C@@H]1O[C@H](CO)[C@@H](O)[C@H](O)[C@H]1O)[C@H]1CC[C@]2(C)[C@@H]1[C@H](O)C[C@@H]1[C@@]3(C)CC[C@H](O[C@@H]4O[C@H](CO)[C@@H](O)[C@H](O)[C@H]4O[C@@H]4O[C@H](CO)[C@@H](O)[C@H](O)[C@H]4O)C(C)(C)[C@@H]3CC[C@]12C [GRd, ginsenoside Rd]"
  display.unit: "ng/mL"
  reported: 12.4
- molecule: "CC(C)=CCC[C@](C)(O[C@@H]1O[C@H](CO)[C@@H](O)[C@H](O)[C@H]1O)[C@H]1CC[C@]2(C)[C@@H]1[C@H](O)C[C@@H]1[C@@]3(C)CC[C@H](O)C(C)(C)[C@@H]3[C@@H](O[C@@H]3O[C@H](CO)[C@@H](O)[C@H](O)[C@H]3O[C@@H]3OC[C@@H](O)[C@H](O)[C@H]3O)C[C@]12C [NGR1, notoginsenoside R1]"
  display.unit: "ng/mL"
  reported: 0.38
- molecule: "CC(C)=CCC[C@](C)(O[C@@H]1O[C@H](CO)[C@@H](O)[C@H](O)[C@H]1O)[C@H]1CC[C@]2(C)[C@@H]1[C@H](O)C[C@@H]1[C@@]3(C)CC[C@H](O)C(C)(C)[C@@H]3[C@@H](O[C@@H]3O[C@H](CO)[C@@H](O)[C@H](O)[C@H]3O)C[C@]12C [GRg1, ginsenoside Rg1]"
  display.unit: "ng/mL"
  reported: 0.6

* * *

Reported concentration at 3 h values are given for each entry in this list.
# assay.text: in vivo
# Parameters: species or system Sprague-Dawley (SD) rats
# study.conditions: Sprague-Dawley, rat, plasma, po, 60 mg·kg^−1

- molecule: "CC(C)=CCC[C@](C)(O[C@@H]1O[C@H](CO)[C@@H](O)[C@H](O)[C@H]1O)[C@H]1CC[C@]2(C)[C@@H]1[C@H](O)C[C@@H]1[C@@]3(C)CC[C@H](O[C@@H]4O[C@H](CO)[C@@H](O)[C@H](O)[C@H]4O[C@@H]4O[C@H](CO)[C@@H](O)[C@H](O)[C@H]4O)C(C)(C)[C@@H]3CC[C@]12C [GRd, ginsenoside Rd]"
  display.unit: "ng/mL"
  concentration at 3 h: 22.3
- molecule: "CC(C)=CCC[C@](C)(O[C@@H]1O[C@H](CO[C@@H]2O[C@H](CO)[C@@H](O)[C@H](O)[C@H]2O)[C@@H](O)[C@H](O)[C@H]1O)[C@H]1CC[C@]2(C)[C@@H]1[C@H](O)C[C@@H]1[C@@]3(C)CC[C@H](O[C@@H]4O[C@H](CO)[C@@H](O)[C@H](O)[C@H]4O[C@@H]4O[C@H](CO)[C@@H](O)[C@H](O)[C@H]4O)C(C)(C)[C@@H]3CC[C@]12C [GRb1, ginsenoside Rb1]"
  display.unit: "ng/mL"
  concentration at 3 h: 78.1

* * *

# Test system: CYP2C19
# assay.text: In vitro cocktail CYP450 activity assay in rat liver microsomes, CYP2C19 (omeprazole probe)
# study.conditions: Sprague-Dawley, rat, pooled rat liver microsomes, pH 7.4, probe omeprazole (1.07 µM, in seven-probe cocktail), IC50 CYP2C19, single components; RLM 0.2 mg/mL, 15 min, triplicate, mean ± SD
Threshold check on IC50 at 15 min: strictly below 70 µM is 1; on or above 70 µM is -1.

- compound: "CC(C)=CCC[C@](C)(O[C@@H]1O[C@H](CO[C@@H]2O[C@H](CO)[C@@H](O)[C@H](O)[C@H]2O)[C@@H](O)[C@H](O)[C@H]1O)[C@H]1CC[C@]2(C)[C@@H]1[C@H](O)C[C@@H]1[C@@]3(C)CC[C@H](O[C@@H]4O[C@H](CO)[C@@H](O)[C@H](O)[C@H]4O[C@@H]4O[C@H](CO)[C@@H](O)[C@H](O)[C@H]4O)C(C)(C)[C@@H]3CC[C@]12C [GRb1, ginsenoside Rb1]"
  system.under.test: "CYP2C19"
  discrete.label: 1
- compound: "CC(C)=CCC[C@](C)(O[C@@H]1O[C@H](CO)[C@@H](O)[C@H](O)[C@H]1O)[C@H]1CC[C@]2(C)[C@@H]1[C@H](O)C[C@@H]1[C@@]3(C)CC[C@H](O)C(C)(C)[C@@H]3[C@@H](O[C@@H]3O[C@H](CO)[C@@H](O)[C@H](O)[C@H]3O)C[C@]12C [GRg1, ginsenoside Rg1]"
  system.under.test: "CYP2C19"
  discrete.label: -1
- compound: "CC(C)=CCC[C@](C)(O[C@@H]1O[C@H](CO)[C@@H](O)[C@H](O)[C@H]1O)[C@H]1CC[C@]2(C)[C@@H]1[C@H](O)C[C@@H]1[C@@]3(C)CC[C@H](O)C(C)(C)[C@@H]3[C@@H](O[C@@H]3O[C@H](CO)[C@@H](O)[C@H](O)[C@H]3O[C@@H]3O[C@@H](C)[C@H](O)[C@@H](O)[C@H]3O)C[C@]12C [GRe, ginsenoside Re]"
  system.under.test: "CYP2C19"
  discrete.label: 1
- compound: "CC(C)=CCC[C@](C)(O[C@@H]1O[C@H](CO)[C@@H](O)[C@H](O)[C@H]1O)[C@H]1CC[C@]2(C)[C@@H]1[C@H](O)C[C@@H]1[C@@]3(C)CC[C@H](O)C(C)(C)[C@@H]3[C@@H](O[C@@H]3O[C@H](CO)[C@@H](O)[C@H](O)[C@H]3O[C@@H]3OC[C@@H](O)[C@H](O)[C@H]3O)C[C@]12C [NGR1, notoginsenoside R1]"
  system.under.test: "CYP2C19"
  discrete.label: -1

* * *

Reported Response (% control) CYP2D6 values are given for each entry in this list.
# Tested on: CYP2D6
# assay.text: in vitro
# study.conditions: Sprague-Dawley, rat, 15 min, pH 7.4

- compound: "CC(C)=CCC[C@](C)(O[C@@H]1O[C@H](CO)[C@@H](O)[C@H](O)[C@H]1O)[C@H]1CC[C@]2(C)[C@@H]1[C@H](O)C[C@@H]1[C@@]3(C)CC[C@H](O[C@@H]4O[C@H](CO)[C@@H](O)[C@H](O)[C@H]4O[C@@H]4O[C@H](CO)[C@@H](O)[C@H](O)[C@H]4O)C(C)(C)[C@@H]3CC[C@]12C [GRd, ginsenoside Rd]"
  system.under.test: "CYP2D6"
  display.unit: "% control"
  Response (% control) CYP2D6: 99.99
- compound: "CC(C)=CCC[C@](C)(O[C@@H]1O[C@H](CO)[C@@H](O)[C@H](O)[C@H]1O)[C@H]1CC[C@]2(C)[C@@H]1[C@H](O)C[C@@H]1[C@@]3(C)CC[C@H](O)C(C)(C)[C@@H]3[C@@H](O[C@@H]3O[C@H](CO)[C@@H](O)[C@H](O)[C@H]3O)C[C@]12C [GRg1, ginsenoside Rg1]"
  system.under.test: "CYP2D6"
  display.unit: "% control"
  Response (% control) CYP2D6: 99.88
- compound: "CC(C)=CCC[C@](C)(O[C@@H]1O[C@H](CO)[C@@H](O)[C@H](O)[C@H]1O)[C@H]1CC[C@]2(C)[C@@H]1[C@H](O)C[C@@H]1[C@@]3(C)CC[C@H](O)C(C)(C)[C@@H]3[C@@H](O[C@@H]3O[C@H](CO)[C@@H](O)[C@H](O)[C@H]3O[C@@H]3OC[C@@H](O)[C@H](O)[C@H]3O)C[C@]12C [NGR1, notoginsenoside R1]"
  system.under.test: "CYP2D6"
  display.unit: "% control"
  Response (% control) CYP2D6: 92.76
- compound: "CC(C)=CCC[C@](C)(O[C@@H]1O[C@H](CO[C@@H]2O[C@H](CO)[C@@H](O)[C@H](O)[C@H]2O)[C@@H](O)[C@H](O)[C@H]1O)[C@H]1CC[C@]2(C)[C@@H]1[C@H](O)C[C@@H]1[C@@]3(C)CC[C@H](O[C@@H]4O[C@H](CO)[C@@H](O)[C@H](O)[C@H]4O[C@@H]4O[C@H](CO)[C@@H](O)[C@H](O)[C@H]4O)C(C)(C)[C@@H]3CC[C@]12C [GRb1, ginsenoside Rb1]"
  system.under.test: "CYP2D6"
  display.unit: "% control"
  Response (% control) CYP2D6: 98.58

* * *

# System: CYP3A4
# assay.text: in vitro
# study.conditions: Sprague-Dawley, rat, microsomes, pH 7.4, IC50 CYP3A4, single components; RLM 0.2 mg/mL, 15 min, triplicate, mean ± SD
pIC50: −log10 of the molar value.
Reported pIC50 values are given for each entry in this list.

- compound: "CC(C)=CCC[C@](C)(O[C@@H]1O[C@H](CO)[C@@H](O)[C@H](O)[C@H]1O)[C@H]1CC[C@]2(C)[C@@H]1[C@H](O)C[C@@H]1[C@@]3(C)CC[C@H](O)C(C)(C)[C@@H]3[C@@H](O[C@@H]3O[C@H](CO)[C@@H](O)[C@H](O)[C@H]3O[C@@H]3O[C@@H](C)[C@H](O)[C@@H](O)[C@H]3O)C[C@]12C [GRe, ginsenoside Re]"
  pIC50: 4.12
- compound: "CC(C)=CCC[C@](C)(O[C@@H]1O[C@H](CO)[C@@H](O)[C@H](O)[C@H]1O)[C@H]1CC[C@]2(C)[C@@H]1[C@H](O)C[C@@H]1[C@@]3(C)CC[C@H](O)C(C)(C)[C@@H]3[C@@H](O[C@@H]3O[C@H](CO)[C@@H](O)[C@H](O)[C@H]3O)C[C@]12C [GRg1, ginsenoside Rg1]"
  pIC50: 4.41
- compound: "CC(C)=CCC[C@](C)(O[C@@H]1O[C@H](CO)[C@@H](O)[C@H](O)[C@H]1O)[C@H]1CC[C@]2(C)[C@@H]1[C@H](O)C[C@@H]1[C@@]3(C)CC[C@H](O)C(C)(C)[C@@H]3[C@@H](O[C@@H]3O[C@H](CO)[C@@H](O)[C@H](O)[C@H]3O[C@@H]3OC[C@@H](O)[C@H](O)[C@H]3O)C[C@]12C [NGR1, notoginsenoside R1]"
  pIC50: 4.07
